Exercise: state measured EC50 for each of the molecules provided.
- assay_target: LXRα (Homo sapiens, UniProt Q13133)
- Construct: expressed in transfected cells; host or cells: HEK293
- Sequence (Q13133 155-447): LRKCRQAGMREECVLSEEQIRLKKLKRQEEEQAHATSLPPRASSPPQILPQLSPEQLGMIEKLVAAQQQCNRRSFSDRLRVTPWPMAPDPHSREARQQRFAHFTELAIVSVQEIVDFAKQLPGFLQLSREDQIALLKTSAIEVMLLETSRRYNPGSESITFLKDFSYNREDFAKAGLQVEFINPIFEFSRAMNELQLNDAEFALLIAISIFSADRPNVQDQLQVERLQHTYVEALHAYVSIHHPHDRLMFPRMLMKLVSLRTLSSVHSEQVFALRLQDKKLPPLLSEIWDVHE
- protocol_text: LXR Gal4 reporter transient transfection assay (mammalian two-hybrid, HEK293), LXRα
- Type: cell-based
- conditions: ligand-binding domain (LBD) of LXRα, HEK293; read-out: LBD-M2H Gal4α

# input Query: EC50; subject: "N#Cc1sccc1-c1c(-c2cncs2)n(S(=O)(=O)c2ccc(Cl)cc2)c2ccccc12"
# output 100 to 1000 nM

# input Follow-up item: "O=S(=O)(c1ccc(Cl)cc1)n1c(-c2cccs2)c(-c2ccsc2Cl)c2ccccc21"
# output < 100 nM

# input Proceed to "N#Cc1sccc1-c1c(-c2cccs2)n(S(=O)(=O)c2ccc(Cl)cc2)c2ccc(C(=O)O)cc12"
# output 100 to 1000 nM

# input How about this molecule: "N#Cc1sccc1-c1c(-c2cccs2)n(S(=O)(=O)c2ccc(Cl)cc2)c2ccc(O)cc12"
# output < 100 nM

# input Also "Cc1ccc(S(=O)(=O)n2c(-c3cccc(-c4cccc(C(=O)NS(C)(=O)=O)c4)c3)c(-c3ccsc3C#N)c3ccccc32)cc1" ?
# output 100 to 1000 nM

# input Cc1ccc(S(=O)(=O)n2c(-c3cccc(C4CC4C(=O)O)c3)c(-c3ccsc3C#N)c3ccccc32)cc1 (stereo not shown) ?
# output < 100 nM

# input Note, next up: "Cc1cccc(S(=O)(=O)n2c(-c3cccc(N4CC(C(=O)O)C4)c3)c(-c3ccsc3C#N)c3cc(F)ccc32)c1"
# output 100 to 1000 nM

# input Please give the result for "COc1ccc(S(=O)(=O)n2c(-c3ccc(CCC(N)=O)cc3)c(-c3ccsc3C#N)c3ccccc32)cc1" too.
# output 1000 to 10000 nM

# input Now the molecule "N#Cc1sccc1-c1c(-c2cccs2)n(S(=O)(=O)c2ccc(Cl)cc2)c2ccc(OCC(=O)O)cc12"
# output 1000 to 10000 nM

# input # repeat for "COc1ccc(S(=O)(=O)n2c(-c3cccs3)c(-c3ccsc3C#N)c3ccccc32)cc1"
# output < 100 nM

----------
- protocol_text: Phase 1 study, SAD cohorts: plasma pharmacokinetics
- Format: in vivo, human
- conditions: both sexes, human, oral, Day 1, 6 mg, plasma, median
readout_kind: Tmax

# input Which Tmax reading was recorded for the compound N#Cc1cccc(C#N)c1-c1c(-c2cccc(-c3ccc(C(=O)NCC(=O)O)cc3Cl)c2)n(S(=O)(=O)c2ccc(C(F)F)cc2)c2ccc(F)cc12 [Compound 21/3] ?
# output 4 h

----------
- protocol_text: Phase 1 study, SAD cohorts: plasma pharmacokinetics
- Type: in vivo, human
- conditions: both sexes, human, oral, Day 1, 20 mg, plasma, mean
readout_kind: AUC(0-inf) (µg·h/mL)
Report as a plain number; the unit µg·h/mL is understood.

# input Recorded AUC(0-inf) for N#Cc1cccc(C#N)c1-c1c(-c2cccc(-c3ccc(C(=O)NCC(=O)O)cc3Cl)c2)n(S(=O)(=O)c2ccc(C(F)F)cc2)c2ccc(F)cc12 [Compound 21/3] , please?
# output 0.0206

----------
- protocol_text: Pharmacokinetics in mice after single oral dosing (blood/plasma and liver exposure)
- Format: in vivo
- conditions: 20 mg/kg single oral dose, time point 4 h
readout_kind: blood/plasma exposure

# input Query: blood/plasma exposure; subject: "Cc1ccc(S(=O)(=O)n2c(-c3cccc(-c4ccc(C(=O)O)cc4)c3)c(-c3ccsc3C#N)c3cc(F)ccc32)cc1C"
# output B (300 nM to ≤1 μM)

# input Repeat with "N#Cc1sccc1-c1c(-c2cccc(N3CC(C(=O)O)C3)c2)n(S(=O)(=O)c2ccc(Cl)cc2)c2ccccc12"
# output D (<100 nM)

# input Check N#Cc1sccc1-c1c(-c2cccc(C3CC3C(=O)O)c2)n(S(=O)(=O)c2ccc(Cl)cc2)c2ccc(F)cc12 (centres unmarked) too.
# output D (<100 nM)

# input Same lookup for "Cc1ccc(S(=O)(=O)n2c(-c3cccc(-c4ccc(CN5CCN(C)CC5)cc4)c3)c(-c3ccsc3C#N)c3cc(F)ccc32)cc1" , please.
# output B (300 nM to ≤1 μM)

----------
- assay_target: GST-LXRβ ligand-binding domain (Homo sapiens, UniProt P55055)
- Construct: amino acids 156-461; NP009052
- protocol_text: TR-FRETβ activity assay (NCoA3 coactivator peptide recruitment)
- conditions: 1 μM 24(S)-25-epoxycholesterol prestimulation
readout_kind: EC50

# input May I ask what EC50 has been recorded for "Cc1ccc(S(=O)(=O)n2c(-c3cccc(-c4ccc(C(=O)O)cc4Cl)c3)c(-c3c(C)cccc3C#N)c3cc(F)ccc32)cc1" ?
# output < 100 nM

# input Another: "Cc1ccc(S(=O)(=O)n2c(-c3cccc(N4CC[C@@H](C(=O)O)C[C@H]4C)c3)c(-c3ccsc3C#N)c3cc(F)ccc32)cc1"
# output 100 to 1000 nM

# input Another compound: "COc1cc(-c2cccc(-c3c(-c4ccsc4C#N)c4cc(F)ccc4n3S(=O)(=O)c3ccc(C)cc3)c2)c(Cl)cc1C(=O)O"
# output 100 to 1000 nM

# input Same read-out for "N#Cc1cccc(C#N)c1-c1c(-c2cccc(-c3ccc(C(=O)NCC(=O)O)cc3Cl)c2)n(S(=O)(=O)c2ccc(C(F)F)cc2)c2ccc(F)cc12" ?
# output < 100 nM

# input Another: "CC1CCN(S(=O)(=O)n2c(-c3cccc(-c4ccc(C(=O)O)cc4Cl)c3)c(-c3ccsc3C#N)c3cc(F)ccc32)CC1"
# output 100 to 1000 nM

# input Now try "O=C(O)c1ccc(-c2cccc(-c3c(-c4c(Cl)cccc4Cl)c4cc(F)ccc4n3S(=O)(=O)c3ccc(C(F)F)cc3)c2)c(Cl)c1" .
# output < 100 nM

# input Follow-up item: "N#Cc1cccc(F)c1-c1c(-c2cccc(-c3ccc(C(=O)O)cc3Cl)c2)n(S(=O)(=O)c2ccc(C(F)F)cc2)c2ccc(F)cc12"
# output < 100 nM

# input Okay, and "N#Cc1cc(F)ccc1-c1c(-c2cccs2)n(S(=O)(=O)c2ccc(Cl)cc2)c2ccccc12" ?
# output 100 to 1000 nM

# input For "CC(C)(C)OC(=O)CNC(=O)c1ccc(-c2cccc(-c3c(-c4c(C#N)cccc4C#N)c4cc(F)ccc4n3S(=O)(=O)c3ccc(C(F)F)cc3)c2)c(Cl)c1" then?
# output < 100 nM

# input Next compound up: "N#Cc1ccc(S(=O)(=O)n2c(-c3cccc(-c4ccc(C(=O)O)cc4Cl)c3)c(-c3ccsc3C#N)c3cc(F)ccc32)cc1"
# output 100 to 1000 nM

# input Now consider "N#Cc1sccc1-c1c(-c2cccc(-c3ccc(C(=O)O)cc3Cl)c2)n(S(=O)(=O)c2ccc(Cl)cc2)c2ccc(F)cc12" .
# output 100 to 1000 nM

# input Same question for "N#Cc1ccccc1-c1c(-c2cccc(-c3ccc(C(=O)O)c4c3OCO4)c2)n(S(=O)(=O)c2ccc(C(F)F)cc2)c2ccc(F)cc12" please.
# output < 100 nM

# input Input "CS(=O)(=O)c1ccccc1-c1c(-c2cccs2)n(S(=O)(=O)c2ccc(Cl)cc2)c2ccccc12"
# output 1000 to 10000 nM

----------
- protocol_text: Phase 1 study, SAD cohorts: plasma pharmacokinetics
- Assay type: in vivo, human
- conditions: both sexes, human, oral, Day 1, 2 mg, plasma, median
readout_kind: half-life (h)
Answer format: numeric, h implied, no suffix.

# input Which half-life value is on record for N#Cc1cccc(C#N)c1-c1c(-c2cccc(-c3ccc(C(=O)NCC(=O)O)cc3Cl)c2)n(S(=O)(=O)c2ccc(C(F)F)cc2)c2ccc(F)cc12 [Compound 21/3] ?
# output 4.96

----------
- assay_target: GST-LXRβ ligand-binding domain (Homo sapiens, UniProt P55055)
- Construct: amino acids 156-461; NP009052
- Sequence (P55055 156-460 limits assumed): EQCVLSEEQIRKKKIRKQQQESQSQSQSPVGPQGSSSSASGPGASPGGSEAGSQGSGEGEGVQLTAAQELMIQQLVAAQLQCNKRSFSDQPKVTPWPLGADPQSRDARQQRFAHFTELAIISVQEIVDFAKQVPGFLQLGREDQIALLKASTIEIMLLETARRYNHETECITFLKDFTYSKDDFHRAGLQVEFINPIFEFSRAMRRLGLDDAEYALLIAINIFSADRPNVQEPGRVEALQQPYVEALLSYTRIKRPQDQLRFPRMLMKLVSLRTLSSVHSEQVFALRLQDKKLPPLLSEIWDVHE
- protocol_text: TR-FRETβ activity assay (NCoA3 coactivator peptide recruitment)
- conditions: 1 μM 24(S)-25-epoxycholesterol prestimulation
pEC50: −log10 of the molar value.
readout_kind: pEC50

# input Record request: pEC50 value, item N#Cc1sccc1-c1c(-c2cccs2)n(S(=O)(=O)c2ccc(F)cc2)c2ccccc12 [20/11]
# output 6.00 to 7.00

# input Try the compound N#Cc1cccc(C#N)c1-c1c(-c2cccc(-c3ccc(C(=O)O)cc3Cl)c2)n(S(=O)(=O)c2ccc(Cl)cc2)c2ccc(F)cc12 [11/55]
# output > 7.00

# input What do you have for Cc1ccc(S(=O)(=O)n2c(-c3cccc(-c4ccc(C(=O)O)nc4)c3)c(-c3ccsc3C#N)c3cc(F)ccc32)cc1 [3/47] ?
# output 6.00 to 7.00

# input Here is the next compound: Cc1ccc(S(=O)(=O)n2c(-c3cccc(-c4ccc(C(C)(O)C(=O)O)cc4)c3)c(-c3ccsc3C#N)c3cc(F)ccc32)cc1 (centres unmarked) [3/55]
# output 6.00 to 7.00

# input Field entry: N#Cc1cccc(C#N)c1-c1c(-c2cccc(-c3c(F)c(F)c(C(=O)O)c(F)c3F)c2)n(S(=O)(=O)c2ccc(C(F)F)cc2)c2ccc(F)cc12 [11/54]
# output > 7.00

# input And for N#Cc1ccccc1-c1c(-c2cccc(-c3ccc(C(=O)O)cc3Cl)c2)n(S(=O)(=O)c2ccc(C(F)F)cc2)c2cnccc12 [11/49] ?
# output > 7.00

# input Entry Cc1cccc(C#N)c1-c1c(-c2cccc(-c3ccc(C(=O)O)cc3Cl)c2)n(S(=O)(=O)c2ccc(C(F)F)cc2)c2ccc(F)cc12 [41/1] please
# output > 7.00

# input Cool, now Cc1ccc(S(=O)(=O)n2c(-c3cccc(N4CCC(C(=O)O)CC4)c3)c(-c3ccsc3C#N)c3cc(F)ccc32)cc1 [3/38]
# output 6.00 to 7.00

# input Moving on to the next compound: N#Cc1cccc(C#N)c1-c1c(-c2cccc(Br)c2)n(S(=O)(=O)c2ccc(C(F)F)cc2)c2ccc(F)cc12 [1/139]
# output 6.00 to 7.00

# input Param item: N#Cc1sccc1-c1c(-c2ccc(F)cc2)n(S(=O)(=O)c2ccc(Cl)cc2)c2ccccc12 [26/1]
# output 5.00 to 6.00

# input Field entry: Cc1ccc(S(=O)(=O)n2c(-c3cccc(-c4ccc(C(C(=O)O)N(C)C)cc4Cl)c3)c(-c3ccsc3C#N)c3cc(F)ccc32)cc1 (centres unmarked) [Compound 3]
# output > 7.00

# input What do you get for N#Cc1sccc1-c1c(-c2cccc(N3CC(C(=O)O)C3)c2)n(S(=O)(=O)c2ccc(Cl)cc2)c2ccc(F)cc12 [5/7] ?
# output 6.00 to 7.00

# input Input Cc1ccc(S(=O)(=O)n2c(-c3cccc(-c4ccc(C(C)(C)N)cc4Cl)c3)c(-c3ccsc3C#N)c3cc(F)ccc32)cc1 [2/2]
# output 6.00 to 7.00

# input // query: N#Cc1nccnc1-c1c(-c2cccs2)n(S(=O)(=O)c2ccc(Cl)cc2)c2ccccc12 [20/7]
# output 5.00 to 6.00
